Hello, the source for this data is patent US20240043547A1, in case you need it.

- TEST TARGET: T1, human IL-31-His (human, UniProt Q6EBC2 24-164)
- T1 construct: form captured via anti-His tag antibody in the SPR of the scFvs (sections 1.8 and 2.4); also called hIL-31; not shown: His tag
- T1 sequence (looked up): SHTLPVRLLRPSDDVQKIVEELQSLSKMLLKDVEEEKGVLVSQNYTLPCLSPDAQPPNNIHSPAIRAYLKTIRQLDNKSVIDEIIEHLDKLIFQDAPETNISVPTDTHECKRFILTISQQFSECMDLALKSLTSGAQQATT
- MEASUREMENT DESCRIPTION: SPR (Biacore T200), human IL-31-His captured via anti-His antibody, scFv as analyte
koff overview
Number in s⁻¹, nothing else.

PRO1901 (scFv, scFv (VL-linker-VH); variant of PRO1643 with VH L12S, V103T, L144Q (AHo numbering); also called 50-09-D07-sc05) scFv: AFQLTQSPSSLSASVGDRVTITCQASQSIDSWLAWYQQKPGKPPKLLIYQASKLASGVPSRFSGSGSGTDYTLTISSLQPEDFATYYCQTYYGGGHIGWGFGTGTKVTVLGGGGGSGGGGSGGGGSGGGGSQSQLVESGGGSVQPGGSLRLSCAASGFSFSANYWICWVRQAPGKGLEWIVCIYIGSRADTYYAPWAKGRFTISKDNSKNTVYLQMNSLRAEDTATYFCARFSSGIYDLDRFFLWGQGTQVTVSS    0.000565

// below: koff requested for another binder
Sample PRO1900 (scFv, scFv (VL-linker-VH); variant of PRO1643 with VH L12R, V103T, L144Q (AHo numbering); also called 50-09-D07-sc04; 50-09-D07-5c04) scFv: AFQLTQSPSSLSASVGDRVTITCQASQSIDSWLAWYQQKPGKPPKLLIYQASKLASGVPSRFSGSGSGTDYTLTISSLQPEDFATYYCQTYYGGGHIGWGFGTGTKVTVLGGGGGSGGGGSGGGGSGGGGSQSQLVESGGGRVQPGGSLRLSCAASGFSFSANYWICWVRQAPGKGLEWIVCIYIGSRADTYYAPWAKGRFTISKDNSKNTVYLQMNSLRAEDTATYFCARFSSGIYDLDRFFLWGQGTQVTVSS — what was its koff?
0.000599
